meta.source: patent US20050203086A1

pIC50 by entry:
Biological target: prostaglandin E2 type 2 (EP2) receptors (Homo sapiens, UniProt P43116)
Sequence (P43116 whole entry): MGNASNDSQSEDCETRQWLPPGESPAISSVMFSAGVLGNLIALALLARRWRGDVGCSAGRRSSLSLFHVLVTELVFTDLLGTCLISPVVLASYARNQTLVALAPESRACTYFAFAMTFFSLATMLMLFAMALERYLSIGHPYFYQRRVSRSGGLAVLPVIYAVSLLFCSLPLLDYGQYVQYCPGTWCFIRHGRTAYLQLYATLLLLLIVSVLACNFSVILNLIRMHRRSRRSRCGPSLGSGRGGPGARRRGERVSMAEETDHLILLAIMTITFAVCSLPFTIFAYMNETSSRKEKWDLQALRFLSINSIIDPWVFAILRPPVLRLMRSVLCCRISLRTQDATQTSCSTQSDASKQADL
Please report pIC50 as the negative decimal logarithm of the molar concentration, giving only the number.

Consider "CCCCc1ccc(CN(Cc2cccc(CC(=O)O)c2)S(=O)(=O)c2cccc(F)c2)cc1" . Its measured pIC50 is 6.61

Form field pIC50, entry "O=C(O)Cc1cccc(CN(Cc2ccc(-n3ccnc3)cc2)S(=O)(=O)c2cccnc2)c1" : 6.78

###

Recorded log10(IC50), one value per entry.
Target: prostaglandin E2 type 2 (EP2) receptors (Homo sapiens)
Kindly note that the scale is log10 and the underlying IC50 is in nM.

Observe how each entry below is paired with its result.
{"columns": ["SAMPLE SMILES", "log10(IC50)"],
 "data": [
  ["CCCCc1ccc(CN(Cc2cccc(CC(=O)O)c2)S(=O)(=O)c2cn(C)cn2)cc1", 2.49],
  ["O=C(O)Cc1cccc(CN(Cc2ccc(C3CCCCC3)cc2)S(=O)(=O)c2cccnc2)c1", 2.29],
  ["O=C(O)Cc1cccc(CN(Cc2ccc(-c3cncnc3)cc2)S(=O)(=O)c2cccnc2)c1", 1.41],
  ["CCCCc1ccc(CN(CCCCCCC(=O)O)S(=O)(=O)c2ccccc2)cc1", 3.34],
  ["CCCCc1ccc(CN(Cc2cccc(CC(=O)O)c2)S(=O)(=O)c2ccc(NC(C)=O)cc2)cc1", 2.69]
]}

# evaluate next
Form field log10(IC50) for item "CCCOc1ccc(CN(Cc2cccc(CC(=O)O)c2)S(=O)(=O)c2cccnc2)cc1O" on prostaglandin E2 type 2 (EP2) receptors (Homo sapiens): 1.72

###

These compounds were tested on prostaglandin E2 type 2 (EP2) receptors (Homo sapiens); IC50 is the recorded read-out.
Note: unit µM is implicit; provide only the numeric part.

Quick note, IC50 for "O=C(O)c1ccc(CCCN(CCCc2cccc(Cl)c2)C(=O)Cc2cccnc2)s1" landed at 0.64

###

Please consider the recorded IC50 for prostaglandin E2 type 2 (EP2) receptors (Homo sapiens, UniProt P43116) in what follows.
Write the number in nM without appending the unit.

Completed entries (count: 3):
{"columns": ["SAMPLE SMILES", "TARGET OR TEST SYSTEM", "UNITS SYMBOL", "OBS VALUE"],
 "data": [
  ["CC(=O)Nc1nc(C)c(S(=O)(=O)N(CCCc2cccc(Cl)c2)CCCc2ccc(C(=O)O)s2)s1", "prostaglandin E2 type 2 (EP2) receptors (Homo sapiens, UniProt P43116)", "nM", 210],
  ["O=C(O)c1ccc(CCCN(CCCc2cccc(Cl)c2)S(=O)(=O)c2cccc3ccccc23)s1", "prostaglandin E2 type 2 (EP2) receptors (Homo sapiens, UniProt P43116)", "nM", 720],
  ["O=C(O)c1ccc(CCCN(CCCc2cccc(Cl)c2)S(=O)(=O)c2cccnc2)s1", "prostaglandin E2 type 2 (EP2) receptors (Homo sapiens, UniProt P43116)", "nM", 225]
]}

Entry "O=C(O)c1ccc(CCCN(CCCc2cccc(Cl)c2)S(=O)(=O)c2ccccc2Cl)s1" — recorded IC50 = 315
